Values from patent US9072758B2

Measured EC50 values are reported for all entries that follow.
measurement.target: UniProt O14842
assay.notes: Agonist action on GPR40 of human origin (Ca2+ fluctuation in a CHO cell strain stably expressing GPR40)
condition.notes: Calcium 4 Assay Kit, fluorescence intensity variation

// worked examples, EC50 included
molecule="O=C1CC(c2ccc(O[C@@H]3CCc4c(-c5ccccc5C(F)(F)F)cccc43)cc2)CS(=O)(=O)N1 (stereo partly drawn) [Example 38]" measurement_target="UniProt O14842" result="< 300 nM"
molecule="O=C1CC(c2ccc(O[C@@H]3CCc4c(Oc5ccccc5)cccc43)cc2)CS(=O)(=O)N1 (stereo partly drawn) [Example 49]" measurement_target="UniProt O14842" result="< 300 nM"

// next item, EC50 requested
Ask | So what does the record say about EC50 for [O-][S+]1N=C(O)CC1c1ccc(O[C@@H]2CCc3c(-c4cccnc4C(F)(F)F)cccc32)cc1 (single isomer, unassigned) ?
Reply | < 300 nM

====

measurement.target: GPR40 of human origin (Homo sapiens, UniProt O14842)
Sequence (O14842 whole entry): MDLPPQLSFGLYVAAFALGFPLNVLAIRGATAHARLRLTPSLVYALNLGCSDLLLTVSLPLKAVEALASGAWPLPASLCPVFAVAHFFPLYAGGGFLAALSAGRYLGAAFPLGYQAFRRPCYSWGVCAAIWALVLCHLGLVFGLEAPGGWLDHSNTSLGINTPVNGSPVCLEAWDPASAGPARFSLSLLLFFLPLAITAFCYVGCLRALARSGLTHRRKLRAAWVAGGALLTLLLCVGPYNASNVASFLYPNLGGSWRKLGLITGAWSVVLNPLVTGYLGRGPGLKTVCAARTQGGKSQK
assay.notes: Agonist action on GPR40 of human origin (Ca2+ fluctuation in a CHO cell strain stably expressing GPR40)
condition.notes: Calcium 4 Assay Kit, fluorescence intensity variation
pEC50: −log10 of the molar value.
readout.name: pEC50

// worked examples, pEC50 included
compound="Cc1cccc(Oc2cccc3c2CC[C@H]3Oc2ccc(C3CC(O)=N[S+]3[O-])cc2)c1 (single isomer, unassigned) [53(A)-a]" readout_name=pEC50 result="> 6.52"
compound="CCOCCOc1cc(C)c(-c2cccc3c2CC[C@H]3Oc2ccc(C3CC(=O)NS(=O)(=O)C3)cc2)c(C)c1 (stereo partly drawn) [Example 42]" readout_name=pEC50 result="> 6.52"

// next item, pEC50 requested
Ask | So what does the record say about pEC50 for Cc1cccc(Oc2cccc3c2CC[C@H]3Oc2ccc(C3CC(O)=N[S+]3[O-])cc2)c1 (single isomer, unassigned) [53(A)-b] ?
Reply | > 6.52
